Origin of the recorded values: patent US20030068615A1

test target: HIV-1LAI envelope gp120 (Human immunodeficiency virus type 1 group M subtype B, UniProt P03377)
Type: binding
condition context: STRL33 18-mer scan; background subtracted; first of two count columns
radioactive counts recorded in twenty minutes class ranges: low class = under 500 counts, middle class = from 500 counts up to 2000 counts, high class = 2000 counts and over

> print(dat)
                         biopolymer.sequence      category
 1                        VISLLVSLPQIIYGNVFN     low class
 2  MAVFLLTQMPFNLMKFIR [STRL33 segment 237-254]    high class
 3                        MCKSLLGIYTINFYTSML  middle class
 4  ATQMTLGFFLPLLTMIVC [STRL33 segment 193-210]    high class
 5  EEHQAFLQFSKVFLPCMY [STRL33 segment 21-38]    high class
 6  AYNQQAKRMTWGKVTSLL [STRL33 segment 137-154]     low class
 7  PVLYAFVSLKFRKNFWKL [STRL33 segment 285-302]  middle class
 8  HEWVFGQVMCKSLLGIYT [STRL33 segment 93-110]    high class
 9  LTDVFLVNLPLADLVFVC [STRL33 segment 65-82]     low class
10  SFHYTIMVTEAIAYLRAC [STRL33 segment 265-282]  middle class
11                        YTINFYTSMLILTCITVD     low class
12  DYHEDYGFSSFNDSSQEE [STRL33 segment 5-22]    high class
13  LTMIVCYSVIIKTLLHAG [STRL33 segment 205-222]    high class
14                        VDRFIVVVKATKAYNQQA     low class
15  FSKVFLPCMYLVVFVCGL [STRL33 segment 29-46]  middle class
16  YAMTSFHYTIMVTEAIAY [STRL33 segment 261-278]    high class

----------
Attribute: COUNTS of radiolabeled gp120 retained
test target: HIV-1LAI envelope gp120 (Human immunodeficiency virus type 1 group M subtype B)
Type: binding
condition context: Panel B, 15-mers and 18-mers of CD4; empty control 575
endpoint: COUNTS of radiolabeled gp120 retained (counts)

> print(dat)
   biopolymer.sequence                               endpoint  observed
1   TYICEVEDQKEEVQLLVF  COUNTS of radiolabeled gp120 retained      3794
2      LKIEDSDTYICEVED  COUNTS of radiolabeled gp120 retained       846
3   IKNLKIEDSDTYICEVED  COUNTS of radiolabeled gp120 retained       699
4      NSDTHLLQGQSLTLT  COUNTS of radiolabeled gp120 retained       631
5      CEVEDQKEEVQLLVF  COUNTS of radiolabeled gp120 retained      1729
6   LVFGLTANSDTHLLQGQS  COUNTS of radiolabeled gp120 retained       564
7      THLLQGQSLTLTLES  COUNTS of radiolabeled gp120 retained      1874
8   SDTHLLQGQSLTLTLESP  COUNTS of radiolabeled gp120 retained      1260
9   KEEVQLLVFGLTANSDTH  COUNTS of radiolabeled gp120 retained      1271
